The following compounds are shown together with reported IC50 values.
biological target: NOX3 (Homo sapiens); test: Amplex Red/HRP H2O2 detection in tetracycline-induced NOX3 HEK293 T-REx cells; format: cell-based; details: Amplex red/HRP, tetracycline 1 μg/mL 24 h; read-out: IC50 NOX3 (T-REx) AR
Sequence (Q9HBY0 whole entry): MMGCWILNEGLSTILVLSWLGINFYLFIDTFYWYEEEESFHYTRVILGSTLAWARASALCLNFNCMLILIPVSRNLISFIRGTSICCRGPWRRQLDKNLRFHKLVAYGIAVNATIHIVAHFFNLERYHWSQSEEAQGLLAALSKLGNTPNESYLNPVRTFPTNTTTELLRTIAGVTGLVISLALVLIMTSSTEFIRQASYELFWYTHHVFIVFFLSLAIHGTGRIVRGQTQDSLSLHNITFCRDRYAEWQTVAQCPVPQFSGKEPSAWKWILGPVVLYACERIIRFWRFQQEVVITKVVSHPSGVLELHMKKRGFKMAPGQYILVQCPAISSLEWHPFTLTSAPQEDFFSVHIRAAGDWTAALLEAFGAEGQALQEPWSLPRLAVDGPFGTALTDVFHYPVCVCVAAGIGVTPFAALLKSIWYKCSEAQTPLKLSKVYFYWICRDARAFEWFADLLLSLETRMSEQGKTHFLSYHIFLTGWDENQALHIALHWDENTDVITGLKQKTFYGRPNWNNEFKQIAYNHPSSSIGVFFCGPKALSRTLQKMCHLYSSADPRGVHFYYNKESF
Sequence (P13498 whole entry partner): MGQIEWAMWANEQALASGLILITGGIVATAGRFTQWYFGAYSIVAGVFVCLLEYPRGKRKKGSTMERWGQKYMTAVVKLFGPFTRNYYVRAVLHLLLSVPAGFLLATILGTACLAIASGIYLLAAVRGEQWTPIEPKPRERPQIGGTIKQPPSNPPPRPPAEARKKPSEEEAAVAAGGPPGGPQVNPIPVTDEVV
Sequence (Q8NFA2 whole entry partner): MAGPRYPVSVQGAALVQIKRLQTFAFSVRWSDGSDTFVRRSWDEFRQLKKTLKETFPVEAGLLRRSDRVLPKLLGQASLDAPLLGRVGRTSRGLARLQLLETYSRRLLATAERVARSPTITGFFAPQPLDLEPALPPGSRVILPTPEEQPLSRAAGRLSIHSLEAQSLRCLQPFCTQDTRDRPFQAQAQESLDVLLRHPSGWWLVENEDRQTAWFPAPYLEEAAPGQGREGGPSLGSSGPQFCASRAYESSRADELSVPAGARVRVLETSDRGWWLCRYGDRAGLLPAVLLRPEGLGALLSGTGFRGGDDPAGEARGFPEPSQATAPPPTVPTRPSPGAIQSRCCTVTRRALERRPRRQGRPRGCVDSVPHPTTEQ

{"given-smiles": "COc1cc(C(C)=O)cc(-c2cc(C(C)=O)cc(OC)c2O)c1O", "IC50": "> 50 µM"}
{"given-smiles": "COc1cc(C(C)=O)ccc1O", "IC50": "> 50 µM"}
{"given-smiles": "c1ccc(Cn2nnc3c(Sc4nc5ccccc5o4)ncnc32)cc1", "IC50": "> 50 µM"}

From: paper PMC6658998
